Reference for the values: paper PMC4067145

Target system: U2B″ (human, UniProt P08579 1-225)
Sequence (P08579 whole entry): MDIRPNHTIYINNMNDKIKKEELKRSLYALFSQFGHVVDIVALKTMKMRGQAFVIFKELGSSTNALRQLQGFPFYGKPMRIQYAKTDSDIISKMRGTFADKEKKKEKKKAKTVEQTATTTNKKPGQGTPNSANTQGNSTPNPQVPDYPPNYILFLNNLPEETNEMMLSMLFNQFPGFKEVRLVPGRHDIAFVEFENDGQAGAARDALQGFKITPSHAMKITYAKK
Experiment description: ITC
pKd: −log10 of the molar value.
Measurement name: pKd

GGGCACAUUGCACCUCGUGUCCAGACUUCGGUC (structured_RNA) [SLII ITC construct] = 7.04
